Value source: the MegaScale stability set (Tsuboyama et al. 2023)

Reported values of folding stability dG for individual entries
B1: EEHEE_rd4_0647 (parent)
chain: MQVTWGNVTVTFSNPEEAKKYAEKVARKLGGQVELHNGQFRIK

# Variants of: B1
# method_summary: folding stability dG (cDNA display proteolysis); higher = more stable
# measurement_context: PBS, room temperature
Only the number, expressed in kcal/mol, is required.

These solved cases illustrate the format of a correct answer.
{"columns": ["mutation_key", "folding stability dG (kcal/mol)"],
 "data": [
  ["F12M", 1.38],
  ["E16C", 3.18],
  ["P15Q", 2.7]
]}

For K43N , what is its reported folding stability dG?
2.59
